FYI, the data here is from the supplement of paper PMC8728848.

molecular target: Gal3S(b1-3)[Fuc(a1-4)]GlcNAc; assay: glycan array binding signal (z-score within array); higher = stronger binding; details: glycan notation: IUPAC condensed, linker removed
This excerpt belongs to a sample that is enriched for the strongest signals.
So I've got a bunch of binders here, and I need their glycan array binding signal (z-score) values.
Give bare numbers.

{"columns": ["binder", "glycan array binding signal (z-score)"],
 "data": [
  ["LecB LY19 (Pseudomonas aeruginosa) (protein) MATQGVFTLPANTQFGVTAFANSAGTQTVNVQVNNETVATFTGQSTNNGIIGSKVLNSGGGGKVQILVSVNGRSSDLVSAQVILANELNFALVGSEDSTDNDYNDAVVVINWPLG", 3.07]
]}

Requested read-out: glycan array binding signal (z-score). Entry: Epa2 (Candida glabrata) (protein) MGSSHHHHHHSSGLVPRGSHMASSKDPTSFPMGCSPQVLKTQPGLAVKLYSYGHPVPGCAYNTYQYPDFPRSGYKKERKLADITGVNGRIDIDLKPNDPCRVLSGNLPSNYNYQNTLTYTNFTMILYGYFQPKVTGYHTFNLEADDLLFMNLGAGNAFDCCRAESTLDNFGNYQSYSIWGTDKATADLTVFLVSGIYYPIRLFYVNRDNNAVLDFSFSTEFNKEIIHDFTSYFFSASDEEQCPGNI
0.641
